target: T1, recombinant human CD4 (catalogue number: 514-CD/CF, manufactured by R&D Systems) (human, UniProt P01730 26-390)
T1 construct: Bought protein (R&D Systems); also called recombinant CD4
test-method-notes: SPR, Biacore T100; antibody captured on anti-human IgG chip, recombinant human CD4 flowed; 1:1 binding model
pKd: −log10 of the molar value.

{"binder": "anti-CD4 humanized antibody HV3LV0 (antibody, V domains shown, Expressed from the humanized antibody expression vector pKANTEX93) VH: EVQLVESGGGLVQPGRSLRLSCAASGFTFSNYGMAWVRQAPGKGLEWVATISYDGSITYYRDSVKGRFTISRDNSKNTLYLQMNSLRAEDTATYYCTREEQYSSWYFDFWGQGILVTVSS VL: DIQLTQSPSSLSASVGDRVTITCRASQSVSISSHDLMQWYQQKPGKAPKLLIYDAFNLASGVPSRFSGSGSGTDFTLTISSLQPEDFATYYCQQSKDDPYTFGQGTKLEIK", "pKd": "> 11.12"}
{"binder": "anti-CD4 humanized antibody HV2LV0 (antibody, V domains shown, Expressed from the humanized antibody expression vector pKANTEX93; also called KM8045; humanized antibody KM8045) VH: EVQLVESGGGLVQPGRSLRLSCAASGFTFSNYGMAWVRQAPGKGLEWVATISYDGSITYYRDSVKGRFTISRDNSKNTLYLQMNSLRAEDTAVYYCTREEQYSSWYFDFWGQGILVTVSS VL: DIQLTQSPSSLSASVGDRVTITCRASQSVSISSHDLMQWYQQKPGKAPKLLIYDAFNLASGVPSRFSGSGSGTDFTLTISSLQPEDFATYYCQQSKDDPYTFGQGTKLEIK", "pKd": "> 11.06"}
{"binder": "anti-CD4 humanized antibody HV0LV0 (antibody, V domains shown, CDRs of KM4065 grafted into human framework regions; Expressed from the humanized antibody expression vector pKANTEX93) VH: EVQLVESGGGLVQPGRSLRLSCAASGFTFSNYGMAWVRQAPGKGLEWVATISYDGSITYYRDSVKGRFTISRDNSKNTLYLQMNSLRAEDTAVYYCAREEQYSSWYFDFWGQGTLVTVSS VL: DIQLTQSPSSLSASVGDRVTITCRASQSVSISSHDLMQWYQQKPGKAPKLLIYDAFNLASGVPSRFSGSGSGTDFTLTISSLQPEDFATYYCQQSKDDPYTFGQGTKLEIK", "pKd": 10.71}
